test system: PBMCs activated through TLR-3; assay: TNFα production in Poly r(I:C)-activated PBMCs (sandwich ELISA); conditions: Replicate 3; 0.3 nM to 750 nM
Property name: pEC50
// pEC50 is dimensionless: -log10 of concentration (M)

Challenge: What measured pEC50 goes with CC#CC[C@H](C)[C@H](O)/C=C/[C@@H]1[C@H]2c3cccc(CCCC(=O)[O-])c3O[C@H]2C[C@H]1O.[Na+] [CTO1681, monosodium salt] ?
Response given: 8.71

----------
test system: PBMCs activated through TLR-3; test: TNFα production in Poly r(I:C)-activated PBMCs (sandwich ELISA); conditions: Replicate 1; 0.3 nM to 750 nM
Property name: pEC50
// pEC50 is dimensionless: -log10 of concentration (M)

Challenge: State its pEC50 on PBMCs activated through TLR-3: CC#CC[C@H](C)[C@H](O)/C=C/[C@@H]1[C@H]2c3cccc(CCCC(=O)[O-])c3O[C@H]2C[C@H]1O.[Na+] [CTO1681, monosodium salt]
Response given: 8.24
